test system: SW620 cells; assay: Neutral red uptake (NRU) cell viability assay, 72 h; type: cell-based, human; details: Homo sapiens, SW-620, SW620, 72 h of exposition
pIC50: −log10 of the molar value.
quantity: pIC50

Known results for compounds:
CC(C)=CCc1c(O)cc2c(c1O)C(=O)C[C@@H](c1ccc(O)cc1)O2 [6-PN, 6-prenylnaringenin]: 4.86
CC(C)=CCc1c(O)cc(O)c2c1O[C@H](c1ccc(O)cc1)CC2=O [8-PN, 8-prenylnaringenin]: 4.60
O=c1[nH]cc(F)c(=O)[nH]1 [5-FU, 5-fluorouracil]: 4.46

P: COc1cc(O)c(CC=C(C)C)c2c1C(=O)CC(c1ccc(O)cc1)O2 (stereo not shown) [IXH, isoxanthohumol]
Q: CCc1c2c(nc3ccc(OC(=O)N4CCC(N5CCCCC5)CC4)cc13)-c1cc3c(c(=O)n1C2)COC(=O)[C@]3(O)CC [IRT, irinotecan]
R: COc1cc(O)c(CC=C(C)C)c(O)c1C(=O)/C=C/c1ccc(O)cc1 [XH, Xanthohumol]
-- ask List items by pIC50 in falling order. // respond by listing labels in the order requested
-- reply R, Q, P
(R: 5.14, Q: 4.60, P: 4.36)

====

tested on: SW620 cells; experiment: Neutral red uptake (NRU) cell viability assay, 72 h; format: cell-based, human; conditions: SW620, 72 h of exposition
quantity: pIC50
# pIC50 = -log10(concentration in molar units)

-- ask Given the entry "O=C1[O][Pt]2([NH][C@@H]3CCCC[C@H]3[NH]2)[O]C1=O" , report its measured pIC50.
-- reply 5.72
